Assignment: determine reported LIVER for the given molecules.
Organism: Rattus norvegicus
Method Notes: Open TG-GATES - Regimen: Daily Repeat
Format: toxicity, organism-based, Sprague-Dawley
Set-up: regimen Daily Repeat, gender Male, age 6 weeks
Applied Conditions: in vivo, po, 100 mg/kg, 72 h, tissue Liver, route gavage, dose level Low, time 3 day
Answers are plain numbers, in g.

In the examples that follow, each entry is paired with its recorded LIVER.
>>> reported_result("CCOc1ccc(NC(=O)CC(C)O)cc1 (stereo not given)")
12.1
>>> reported_result("NC(N)=Nc1nc(CSCCC(N)=NS(N)(=O)=O)cs1")
10.2
>>> reported_result("COc1ccc2[nH]c([S+]([O-])Cc3ncc(C)c(OC)c3C)nc2c1 (stereo not given)")
12.4
>>> reported_result("COC1=CC(=O)C[C@@H](C)[C@]12Oc1c(Cl)c(OC)cc(OC)c1C2=O")
11.2

Task: Retrieve LIVER measured for CCOC(=O)CCC(=O)O[C@H]1[C@H](O[C@@H]2[C@@H](C)[C@H](O[C@H]3C[C@@](C)(OC)[C@@H](O)[C@H](C)O3)[C@@H](C)C(=O)O[C@H](CC)[C@@](C)(O)[C@H](O)[C@@H](C)C(=O)[C@H](C)C[C@@]2(C)O)O[C@H](C)C[C@@H]1N(C)C [ERYTHROMYCIN ETHYLSUCCINATE] and print it.
Result: 10.5

###

Species: Rattus norvegicus
Method Notes: Open TG-GATES - Regimen: Single
Format: toxicity, organism-based, Sprague-Dawley
Parameters: regimen Single, gender Male, age 6 weeks
Applied Conditions: in vivo, po, 300 mg/kg, 3 h, tissue Blood, route gavage, dose level Middle
Assignment: determine reported Eos for the given compounds.

In the examples that follow, each entry is paired with its recorded Eos.
>>> reported_result("COC1=CC(=O)C[C@@H](C)[C@]12Oc1c(Cl)c(OC)cc(OC)c1C2=O")
"1.2%"
>>> reported_result("COc1ccc2[nH]c([S+]([O-])Cc3ncc(C)c(OC)c3C)nc2c1 (centres undefined)")
"1%"
>>> reported_result("CCOC(=O)CCC(=O)O[C@H]1[C@H](O[C@@H]2[C@@H](C)[C@H](O[C@H]3C[C@@](C)(OC)[C@@H](O)[C@H](C)O3)[C@@H](C)C(=O)O[C@H](CC)[C@@](C)(O)[C@H](O)[C@@H](C)C(=O)[C@H](C)C[C@@]2(C)O)O[C@H](C)C[C@@H]1N(C)C [ERYTHROMYCIN ETHYLSUCCINATE]")
"1%"

Task: Retrieve Eos measured for NC(N)=Nc1nc(CSCCC(N)=NS(N)(=O)=O)cs1 and print it.
Result: 1%

###

Assignment: determine reported Hb for the given molecules.
Species: Rattus norvegicus
Method Notes: Open TG-GATES - Regimen: Daily Repeat
Format: toxicity, organism-based, Sprague-Dawley
Set-up: regimen Daily Repeat, gender Male, age 6 weeks
Applied Conditions: in vivo, po, 300 mg/kg, […], tissue Blood, route gavage, dose level Middle, time 7 day
Answers are plain numbers, in g/dL.

In the examples that follow, each entry is paired with its recorded Hb.
>>> reported_result("COc1ccc2[nH]c([S+]([O-])Cc3ncc(C)c(OC)c3C)nc2c1 (stereo not given)")
13.4
>>> reported_result("COC1=CC(=O)C[C@@H](C)[C@]12Oc1c(Cl)c(OC)cc(OC)c1C2=O")
13.7
>>> reported_result("CCOC(=O)CCC(=O)O[C@H]1[C@H](O[C@@H]2[C@@H](C)[C@H](O[C@H]3C[C@@](C)(OC)[C@@H](O)[C@H](C)O3)[C@@H](C)C(=O)O[C@H](CC)[C@@](C)(O)[C@H](O)[C@@H](C)C(=O)[C@H](C)C[C@@]2(C)O)O[C@H](C)C[C@@H]1N(C)C [ERYTHROMYCIN ETHYLSUCCINATE]")
13.7
>>> reported_result("NC(N)=Nc1nc(CSCCC(N)=NS(N)(=O)=O)cs1")
13.9

Task: Retrieve Hb measured for CCOc1ccc(NC(=O)CC(C)O)cc1 (stereo not given) and print it.
Result: 13.4

###

Organism: Rattus norvegicus
Method Notes: Open TG-GATES - Regimen: Daily Repeat
Type: toxicity, organism-based, Sprague-Dawley
Parameters: regimen Daily Repeat, gender Male, age 6 weeks
Applied Conditions: in vivo, po, 0 mg/kg, […], tissue Plasma, route gavage, dose level Control, time 7 day
Readout Name: Na (meq/L)
Answers are plain numbers, in meq/L.

In the examples that follow, each entry is paired with its recorded Na.
>>> reported_result("CN(C)CCN(Cc1cccs1)c1ccccn1")
144.4
>>> reported_result("CCOc1ccc(NC(=O)CC(C)O)cc1 (stereo unspecified) [BUCETIN]")
142.6
>>> reported_result("CCOC(=O)CCC(=O)O[C@H]1[C@H](O[C@@H]2[C@@H](C)[C@H](O[C@H]3C[C@@](C)(OC)[C@@H](O)[C@H](C)O3)[C@@H](C)C(=O)O[C@H](CC)[C@@](C)(O)[C@H](O)[C@@H](C)C(=O)[C@H](C)C[C@@]2(C)O)O[C@H](C)C[C@@H]1N(C)C [ERYTHROMYCIN ETHYLSUCCINATE]")
141.2
>>> reported_result("COc1ccc2[nH]c([S+]([O-])Cc3ncc(C)c(OC)c3C)nc2c1 (stereo unspecified) [OMEPRAZOLE]")
140
>>> reported_result("CC1=C(/C=C/C(C)=C/C=C/C(C)=C/CO)C(C)(C)CCC1 [RETINOL]")
142
>>> reported_result("CN1C(=O)CN=C(c2ccccc2)c2cc(Cl)ccc21 [DIAZEPAM]")
137.6
>>> reported_result("O=C(CCCN1CCC(O)(c2ccc(Cl)cc2)CC1)c1ccc(F)cc1 [HALOPERIDOL]")
138.8
>>> reported_result("NC(N)=Nc1nc(CSCCC(N)=NS(N)(=O)=O)cs1 [FAMOTIDINE]")
140.6

Hi, could you look up Na for each item in my list?
1. NNC(=O)c1ccncc1 [ISONIAZID]
2. COC1=CC(=O)C[C@@H](C)[C@]12Oc1c(Cl)c(OC)cc(OC)c1C2=O [GRISEOFULVIN]
3. CCCNC(=O)NS(=O)(=O)c1ccc(Cl)cc1 [CHLORPROPAMIDE]

Result:
[140.4, 142.2, 143]

###

Organism: Rattus norvegicus
Method Notes: Open TG-GATES - Regimen: Single
Assay type: toxicity, organism-based, Sprague-Dawley
Set-up: regimen Single, gender Male, age 6 weeks
Applied Conditions: in vivo, po, 300 mg/kg, 24 h, tissue Blood, route gavage, dose level Middle
Assignment: determine reported Plat for the given compounds.
Answers are plain numbers, in x10_4/uL.

In the examples that follow, each entry is paired with its recorded Plat.
>>> reported_result("COC1=CC(=O)C[C@@H](C)[C@]12Oc1c(Cl)c(OC)cc(OC)c1C2=O")
125.2
>>> reported_result("CCOC(=O)CCC(=O)O[C@H]1[C@H](O[C@@H]2[C@@H](C)[C@H](O[C@H]3C[C@@](C)(OC)[C@@H](O)[C@H](C)O3)[C@@H](C)C(=O)O[C@H](CC)[C@@](C)(O)[C@H](O)[C@@H](C)C(=O)[C@H](C)C[C@@]2(C)O)O[C@H](C)C[C@@H]1N(C)C [ERYTHROMYCIN ETHYLSUCCINATE]")
117.1
>>> reported_result("NC(N)=Nc1nc(CSCCC(N)=NS(N)(=O)=O)cs1")
114.2

Task: Retrieve Plat measured for COc1ccc2[nH]c([S+]([O-])Cc3ncc(C)c(OC)c3C)nc2c1 (centres undefined) and print it.
Result: 129

###

Species: Rattus norvegicus
Method Notes: Open TG-GATES - Regimen: Single
Assay type: toxicity, organism-based, Sprague-Dawley
Design: regimen Single, gender Male, age 6 weeks
Applied Conditions: in vivo, po, 30 mg/kg, 3 h, tissue Blood, route gavage, dose level Middle
Readout Name: MCHC (%)
One number for each entry, in %.

In the examples that follow, each entry is paired with its recorded MCHC.
>>> reported_result("CC1=C(/C=C/C(C)=C/C=C/C(C)=C/CO)C(C)(C)CCC1 [RETINOL]")
34.1
>>> reported_result("CN(C)CCCN1c2ccccc2CCc2ccc(Cl)cc21 [CLOMIPRAMINE]")
32.6
>>> reported_result("CN(C)CCN(Cc1cccs1)c1ccccn1")
32.8

Shift focus to the following entry.
Task: Retrieve MCHC measured for CN(C)CCCN1c2ccccc2CCc2ccccc21 [IMIPRAMINE] and print it.
Result: 32.4

###

Organism: Rattus norvegicus
Method Notes: Open TG-GATES - Regimen: Single
Type: toxicity, organism-based, Sprague-Dawley
Design: regimen Single, gender Male, age 6 weeks
Applied Conditions: in vivo, po, 300 mg/kg, 3 h, tissue Plasma, route gavage, dose level Middle
Readout Name: IP

In the examples that follow, each entry is paired with its recorded IP.
>>> reported_result("NC(N)=Nc1nc(CSCCC(N)=NS(N)(=O)=O)cs1")
"9 mg/dL"
>>> reported_result("COC1=CC(=O)C[C@@H](C)[C@]12Oc1c(Cl)c(OC)cc(OC)c1C2=O")
"8.7 mg/dL"
>>> reported_result("COc1ccc2[nH]c([S+]([O-])Cc3ncc(C)c(OC)c3C)nc2c1 (centres undefined)")
"9.4 mg/dL"

Task: Retrieve IP measured for CCOC(=O)CCC(=O)O[C@H]1[C@H](O[C@@H]2[C@@H](C)[C@H](O[C@H]3C[C@@](C)(OC)[C@@H](O)[C@H](C)O3)[C@@H](C)C(=O)O[C@H](CC)[C@@](C)(O)[C@H](O)[C@@H](C)C(=O)[C@H](C)C[C@@]2(C)O)O[C@H](C)C[C@@H]1N(C)C [ERYTHROMYCIN ETHYLSUCCINATE] and print it.
Result: 9.1 mg/dL
